- Species on record: Rattus norvegicus
- ASSAY TEXT: DrugMatrix - Regimen: Daily Repeat
- Type: toxicity, organism-based, Sprague-Dawley
- Parameters: regimen Daily Repeat, gender Male, age 6-8 weeks
- CONDITIONS: in vivo, po, 0 mg/kg, 72 h, tissue Plasma, route oral GAVAGE, dose level Control, time 3 day, vehicle 100 % WATER
Returns one of y or n; y when CREATININE is >= 0.2 mg/dL.

Illustrative cases are given below, each with its answer.
Q) Quick check, CREATININE >= 0.2 mg/dL? N[C@@H](Cc1ccc(O)c(O)c1)C(=O)O
A) n

Q) Quick check, CREATININE >= 0.2 mg/dL? C[C@H](CS)C(=O)N1CCC[C@H]1C(=O)O
A) y

Others:
Q) Quick check, CREATININE >= 0.2 mg/dL? COc1cc2nc(N3CCN(C(=O)C4COc5ccccc5O4)CC3)nc(N)c2cc1OC (stereo not given)
A) n

Q) Quick check, CREATININE >= 0.2 mg/dL? C[C@](N)(Cc1ccc(O)c(O)c1)C(=O)O
A) y

Q) Quick check, CREATININE >= 0.2 mg/dL? C[C@H]1c2cccc(O)c2C(=O)C2=C(O)[C@]3(O)C(=O)C(C(N)=O)=C(O)[C@@H](N(C)C)[C@@H]3[C@@H](O)[C@@H]21.O
A) n

Q) Quick check, CREATININE >= 0.2 mg/dL? C=CCC1(C(C)CCC)C(=O)NC(=O)NC1=O (stereo not given)
A) n

Q) Quick check, CREATININE >= 0.2 mg/dL? CNNCc1ccc(C(=O)NC(C)C)cc1
A) n

Q) Quick check, CREATININE >= 0.2 mg/dL? Cn1cc[nH]c1=S
A) y
